Hello, the source for this data is paper PMC4503980, in case you need it.

Biological target: PDZ2 (155-249) from PSD-95 (human)
Assay: fluorescence polarisation; 'direct' FP inhibition assay: TAMRA-nNOS (5 nM) with fixed PDZ1 (7.5 μM), PDZ2 (2.5 μM) or PDZ1-2 (0.3 μM); increasing control compound; 1 x TBS pH 7.4
Ends that are not written are not given here.
Observed Property: Ki (nM)
Answers are plain numbers, in nM.

Quick one: Ki for {N‑cyclohexylethyl}-ETAV [N-cyclohexylethyl-ETAV] ?
2000
